Below: a set of entries, each annotated with reported pEC50.
study_target: human activated kallikrein enzyme (Homo sapiens, UniProt P03952)
Sequence (P03952 391-638 limits assumed): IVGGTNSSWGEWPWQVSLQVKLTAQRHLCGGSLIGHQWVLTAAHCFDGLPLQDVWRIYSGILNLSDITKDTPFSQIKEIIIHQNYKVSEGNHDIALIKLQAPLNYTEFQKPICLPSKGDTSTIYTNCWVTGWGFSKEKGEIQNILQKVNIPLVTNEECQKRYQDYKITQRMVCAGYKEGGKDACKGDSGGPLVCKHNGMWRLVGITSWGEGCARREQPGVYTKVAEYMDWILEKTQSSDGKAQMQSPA
Sequence (P03952 20-390 partner limits assumed): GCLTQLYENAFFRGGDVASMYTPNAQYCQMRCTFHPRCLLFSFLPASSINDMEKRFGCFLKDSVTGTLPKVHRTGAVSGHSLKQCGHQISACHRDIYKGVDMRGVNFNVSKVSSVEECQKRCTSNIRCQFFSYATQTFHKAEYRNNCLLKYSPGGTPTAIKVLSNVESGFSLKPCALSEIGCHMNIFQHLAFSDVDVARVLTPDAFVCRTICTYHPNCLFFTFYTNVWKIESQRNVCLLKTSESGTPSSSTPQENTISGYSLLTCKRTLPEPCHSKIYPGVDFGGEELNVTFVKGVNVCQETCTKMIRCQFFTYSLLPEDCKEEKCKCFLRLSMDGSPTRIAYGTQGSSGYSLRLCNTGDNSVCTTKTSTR
assay_name: Inhibition of human activated plasma kallikrein, fluorogenic PFR-AMC substrate, 500 pM enzyme format
Assay type: biochemical
settings: 500 pM activated kallikrein; 300 μM PFR-AMC; 30 min preincubation; 10 min room temperature; pH 7.5; read-out: Primary Dose Response Assay: Average EC50
pEC50: −log10 of the molar value.

Use these answered entries as a reference point.
{"structure_smiles_string": "COc1ccc2nc(Cn3cc(C(=O)NCc4c(C)cc5c(N)nccc5c4C)cn3)ncc2c1", "pEC50": "7.00 to 8.00"}
{"structure_smiles_string": "Cc1cc2c(N)nccc2c(C)c1CNc1cc(NCc2ccc(Cc3cscn3)cc2)ncn1", "pEC50": "> 9.00"}
{"structure_smiles_string": "Cc1cc2c(N)nccc2c(C)c1CNc1cc(NCc2ccc(Cn3cccn3)cc2F)ncn1", "pEC50": "> 9.00"}
{"structure_smiles_string": "Cc1cc2c(N)nccc2c(C)c1CNC(=O)c1cnn(Cc2nc3ccccc3n2C)c1", "pEC50": "6.00 to 7.00"}
{"structure_smiles_string": "Cc1cc2c(N)nccc2c(C)c1CNc1nccc2c1cnn2Cc1cn2cc(C3CC3)cnc2n1", "pEC50": "6.00 to 7.00"}
{"structure_smiles_string": "Cc1cc2c(N)nccc2c(C)c1CNc1cc(OCc2ccc3ncc(C4CC4)cc3c2)ncn1", "pEC50": "8.00 to 9.00"}

Which pEC50 value is on record for Cc1cc2c(N)nccc2c(C)c1CNc1cc(OCc2ccc(-n3ccnc3)cc2)cnn1 ?
8.00 to 9.00

I'd like to know its pEC50. The molecule in question is Cc1cc2c(N)nccc2c(C)c1CNC(=O)c1cnn(Cc2cc3cc(C4CC4)ccn3n2)c1
> 9.00

Param item = COCc1nn(Cc2ccc(Cn3cccn3)cc2)cc1C(=O)NCc1c(C)cc2c(N)nccc2c1C ; retrieve measured pEC50.
> 9.00
